- assay-remarks: protein stability index of a GFP-peptide fusion (yeast GPS) (PSI 1-4); higher = more stable; sorted into four equal gates, so the index is relative within each strain
- conditions-used: san1∆
result-type: protein stability index
Numbers only.

Here is how some sequences turned out for protein stability index.
> print(dat)
                     query.sequence  readout.value
1  GAKPEEKKDDNSSKPAF [YJL041W/NSP1]           2.87
2         AAKLRTLDYAERHGYIR [RPL2A]            2.9

For every item below, please supply its protein stability index.
1. ETPSRLLLSPDQWYCID [ITC1]
2. INDKRANLMLVMLRLLL [SRB4]
3. KKRESGVEEEEELKDSE [SNF2]
4. DKKASMIISGSRDKTIK [ASC1]
5. FRRDFLLREYDILSQIL [YJL039C/NUP192]
6. GRYLLTPPDDLHPYVPS [SRB8]

Out:
1: 3.16; 2: 1.97; 3: 3.3; 4: 2.63; 5: 2.08; 6: 2.55
